Experiment: in vitro
Details: rat, gh3-tre-luc cells, AC50 (uM) modified / 1000
Where a name gives a salt, the structure may show the parent alone.

{"COMPOUND": "CCOC(=O)/C=C\\C(=O)OCC [Diethyl maleate]", "CC50 at 24 h": "> 90 µM"}
{"COMPOUND": "O=C(NOC[C@H](O)CO)c1ccc(F)c(F)c1Nc1ccc(I)cc1F [PD 0325901]", "CC50 at 24 h": "> 50 µM"}
{"COMPOUND": "CC#CCC(C)[C@H](O)/C=C/[C@@H]1[C@H]2c3cccc(CCCC(=O)O)c3O[C@H]2C[C@H]1O (mixture of isomers) [Beraprost sodium]", "CC50 at 24 h": "> 50 µM"}
{"COMPOUND": "Cc1ncc([C@@H](CCCCCCc2ccc3c(n2)NCCC3)CC(=O)O)cn1 [PharmaGSID_47333]", "CC50 at 24 h": "> 90 µM"}
{"COMPOUND": "CC(=O)OC(C)(C)Cc1ccccc1 [Dimethylbenzylcarbinyl acetate]", "CC50 at 24 h": "> 90 µM"}
{"COMPOUND": "CC[C@]1(O)CC[C@H]2[C@@H]3CCC4=CCCC[C@@H]4[C@H]3CC[C@@]21C [Ethylestrenol]", "CC50 at 24 h": "> 50 µM"}
{"COMPOUND": "CCCC(C)C(=O)OCC (stereo not drawn) [Ethyl 2-methylpentanoate]", "CC50 at 24 h": "> 90 µM"}
{"COMPOUND": "CCCCCCCCCCCCCCCS(=O)(=O)Oc1ccccc1", "CC50 at 24 h": "> 50 µM"}
{"COMPOUND": "C=CC(N)=O [Acrylamide]", "CC50 at 24 h": "> 90 µM"}
